- assayed system: human ATAD2B BRD-containing protein (residues 953–1085) (Homo sapiens, UniProt Q9ULI0)
- Sequence (Q9ULI0 953-1085): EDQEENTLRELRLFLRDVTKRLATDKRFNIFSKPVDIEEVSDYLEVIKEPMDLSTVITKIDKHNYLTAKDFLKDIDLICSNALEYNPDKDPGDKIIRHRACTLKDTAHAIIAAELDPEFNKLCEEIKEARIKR
- protocol notes: ITC of histone peptides with the ATAD2B BRD
Where no end group is shown, it is not given here.
measurement type: pKd
# pKd is unitless: minus log10 of the molar concentration; print number only

Ask: Tell me pKd reported for SGRGKTGGK(Ac)ARAKAKSR-NH2 [H2A.XK9ac (1–17)]
Result: 4.05
